B1: DLC1 (parent)
chain: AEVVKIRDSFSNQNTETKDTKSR

variants of: B1; experiment: protein stability index of a GFP-peptide fusion (GPS, HEK-293T) (PSI 1-6); higher = more stable; details: c terminus: native;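 also: lentivirally expressed fusions sorted by FACS into six bins by GFP to DsRed ratio, PSI derived from sequencing read proportions per bin multiplied by bin number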
MEASUREMENT_KIND: protein stability index
Could you respond with only the numeric value?

Form: variant = AEVHKIRDSFSNQNTETKDTKSR [V4H] ; protein stability index = 2.14

Form: variant = AEVVKIRDSHSNQNTETKDTKSR [F10H] ; protein stability index = 3.71

Form: variant = AEVVGIRDSFSNQNTETKDTKSR [K5G] ; protein stability index = 3.3

Form: variant = AEVVKIRDSFSNQNTETKDTCSR [K21C] ; protein stability index = 4.39

Form: variant = AEVVKIRDSFSNQNTEVKDTKSR [T17V] ; protein stability index = 1.26

Form: variant = AEVVKIRDSFSNQNSETKDTKSR [T15S] ; protein stability index = 2.75

Form: variant = AEVVKDRDSFSNQNTETKDTKSR [I6D] ; protein stability index = 2.79

Form: variant = AEVIKIRDSFSNQNTETKDTKSR [V4I] ; protein stability index = 1.98

Form: variant = AEVVKIRDSFSNQNTDTKDTKSR [E16D] ; protein stability index = 3.35

Form: variant = AHVVKIRDSFSNQNTETKDTKSR [E2H] ; protein stability index = 2.02

Form: variant = AEVVKIRDSFSNQNTETKGTKSR [D19G] ; protein stability index = 2

Form: variant = AEVVKIRDSFSNQITETKDTKSR [N14I] ; protein stability index = 2.08

Form: variant = AEVVKIRDSFSNQNVETKDTKSR [T15V] ; protein stability index = 2.38

Form: variant = TEVVKIRDSFSNQNTETKDTKSR [A1T] ; protein stability index = 2.08

Form: variant = AEVVKIRDSFSNQNTETKDTKLR [S22L] ; protein stability index = 3.48

Form: variant = AETVKIRDSFSNQNTETKDTKSR [V3T] ; protein stability index = 2.19

Form: variant = AVVVKIRDSFSNQNTETKDTKSR [E2V] ; protein stability index = 1.7

Form: variant = AEVVKIRDSFSNQNTETKDKKSR [T20K] ; protein stability index = 4.33

Form: variant = AEVVKIRDSFSNQNTETKTTKSR [D19T] ; protein stability index = 3.09

Form: variant = AEVVKIRFSFSNQNTETKDTKSR [D8F] ; protein stability index = 3.02

Form: variant = AEVVKIRDSFSNQWTETKDTKSR [N14W] ; protein stability index = 2.37

Form: variant = FEVVKIRDSFSNQNTETKDTKSR [A1F] ; protein stability index = 2.06
